tested_on: Thromboxane-A synthase (Oryctolagus cuniculus)
method_notes: Inhibitory activity against rabbit thromboxane synthetase
readout_kind: IC50 (nM)

CC(CCCCCCn1ccnc1)C(=O)O (stereo not drawn) = 30
O=C(O)C1(CCCCCCn2ccnc2)CCCCC1 = 46
O=C(O)/C=C/CCCCCn1ccnc1 = 70
CC(C)(CCCCn1ccnc1)CCC(=O)O = 71

I. O=C(O)C(CCCCCCn1ccnc1)c1ccccc1 (stereo not drawn)
II. CC(C)(CCCCCCC(=O)O)n1ccnc1
III. O=C(O)CCCC/C=C\Cn1ccnc1
IV. O=C(O)/C=C\CCCCCn1ccnc1 [8-Imidazol-1-yl-oct-2-enoic acid]
[in] Form: Sort by [IC50] Order [ ascending ] // respond by listing labels in the order requested
[out] IV, I, III, II

Entry source: BindingDB's records for doi:10.1021/jm00142a005
